Cited source: ChEMBL document CHEMBL5029155

- Tested on: MDA-MB-231
- MEASUREMENT PROTOCOL: Antiproliferative activity against human MDA-MB-231 cells assessed as cell growth inhibition incubated for 72 hrs by MTS assay
- Format: functional, cell-based
- CONDITION LABEL: MDA-MB-231, 72 h
pIC50: −log10 of the molar value.
MEASURED ATTRIBUTE: pIC50

STRUCTURE NOTATION: COc1cc(C(=O)c2cccc(-c3ccc(C)cc3)n2)cc(OC)c1OC
TEST RESULT: 8.28
//
STRUCTURE NOTATION: CCc1c(OC)cc(C(=O)c2cccc(-c3ccc(C)c(O)c3)n2)cc1OC
TEST RESULT: 7.43
//
STRUCTURE NOTATION: COc1cc(C(=O)c2nc(-c3ccc(C)c(O)c3)[nH]c2Br)cc(OC)c1OC
TEST RESULT: 7.15
//
STRUCTURE NOTATION: COc1cc(C(=O)c2cccc(-c3ccc(C(F)F)cc3)n2)cc(OC)c1OC
TEST RESULT: 8.33
//
STRUCTURE NOTATION: COc1cc(C(=O)c2cccc(-c3ccc(C)c(O)c3)n2)cc(OC)c1OC
TEST RESULT: 8.48

[I] COc1cc(-c2n[nH]c3ccc(-c4ccc(C)c(O)c4)nc23)cc(OC)c1OC
[II] COc1cc(C(=O)c2nc(-c3ccc(C)c(O)c3)[nH]c2C)cc(OC)c1OC
[III] COc1cc(C(=O)c2cncc(-c3ccc(C)c(O)c3)n2)cc(OC)c1OC
[IV] COc1cc(C(=O)c2nc(-c3ccc(C(F)F)cc3)ccc2F)cc(OC)c1OC
[V] COc1cc(C(=O)c2nc(-c3ccc(C)c(O)c3)ccc2F)cc(OC)c1OC
Qu. # ascending order, key=pIC50 Reply with the item labels sorted in the order that was asked for.
Ans. II, I, III, IV, V
(II: 6.95, I: 7.65, III: 8.10, IV: 8.37, V: 8.66)

[a] COc1cc(C(=O)c2cncc(-c3c[nH]c4ccccc34)n2)cc(OC)c1OC
[b] COc1cc(C(=O)c2cccc(-c3ccc(C)cc3)n2)cc2c1OCCO2
Qu. // compare measured pIC50 between a and b ; output the lower one Answer = label.
Ans. a
(a: 7.91, b: 8.28)

###

- MEASUREMENT PROTOCOL: Metabolic stability in human liver microsomes assessed as half life in presence of NADPH regenerating system by UPLC-MS analysis
- Format: ADME, Microsome
- CONDITION LABEL: microsomes
MEASURED ATTRIBUTE: t1/2 (min)

Below, each entry is followed by its recorded t1/2 result.
STRUCTURE NOTATION: COc1cc(C(=O)c2nc(-c3ccc(C)cc3)ccc2F)cc(OC)c1OC
t1/2 (min): 9.6
//
STRUCTURE NOTATION: COc1cc(-c2n[nH]c3ccc(-c4ccc(C)c(O)c4)nc23)cc(OC)c1OC
t1/2 (min): 205.2
//
STRUCTURE NOTATION: COc1cc(C(=O)c2cc(OC)c(OC)c(OC)c2)nc(-c2ccc(C)cc2)c1
t1/2 (min): 27.6
//
STRUCTURE NOTATION: COc1cc(C(=O)c2cccc(-c3ccc(C)c(O)c3)n2)cc(OC)c1OC
t1/2 (min): 10.8
//
STRUCTURE NOTATION: COc1cc(C(=O)c2nc(-c3ccc(C(F)F)cc3)ccc2F)cc(OC)c1OC
t1/2 (min): 33
//
STRUCTURE NOTATION: COc1cc(C(=O)c2cncc(-c3ccc(C)cc3)n2)cc(OC)c1OC
t1/2 (min): 20.4
//
STRUCTURE NOTATION: COc1cc(C(=O)c2c[nH]c(-c3ccc(C)c(O)c3)n2)cc(OC)c1OC
t1/2 (min): 142.2
//
STRUCTURE NOTATION: COc1cc(C(=O)c2cncc(-c3ccc(C)c(O)c3)n2)cc(OC)c1OC
t1/2 (min): 46.8
//
STRUCTURE NOTATION: COc1cc(C(=O)c2cccc(-c3ccc(C)cc3)n2)cc(OC)c1OC
t1/2 (min): 4.2
//
STRUCTURE NOTATION: COc1cc(C(=O)c2ccnc(-c3ccc(C)c(O)c3)n2)cc(OC)c1OC
t1/2 (min): 9

[P] COc1cc(C(=O)c2cc(OC)c(OC)c(OC)c2)nc(-c2ccc(C)c(O)c2)c1
[Q] COc1cc(C(=O)c2cccc(-c3ccc(C(F)F)cc3)n2)cc(OC)c1OC
Qu. Hi team, can someone confirm which has the larger t1/2: P or Q ? Thanks. Answer = label.
Ans. P

[P] CCc1c(OC)cc(C(=O)c2cccc(-c3ccc(C)c(O)c3)n2)cc1OC
[Q] COCCOc1c(OC)cc(C(=O)c2cccc(-c3ccc(C)cc3)n2)cc1OC
Qu. Hi team, can someone confirm which has the larger t1/2: P or Q ? Thanks. Answer = label.
Ans. P
(P: 54.6 min, Q: 9 min)

[a] COc1cc(C(=O)c2cc(C)cc(-c3ccc(C)cc3)n2)cc(OC)c1OC
[b] COc1cc(C(=O)c2cccc(-c3ccc(C)cc3)n2)cc2c1OCCO2
Qu. // compare measured t1/2 between a and b ; output the lower one Answer = label.
Ans. b

###

- MEASUREMENT PROTOCOL: Tmax in NSG mouse at 10 mg/kg, ip
- Type: ADME, organism-based
- CONDITION LABEL: in vivo
MEASURED ATTRIBUTE: Tmax (min)
Quick note: give the figure in min, leave out the unit.

Qu. I'd like to know its Tmax. The molecule in question is `COc1cc(C(=O)c2nc(-c3ccc(C)c(O)c3)ccc2F)cc(OC)c1OC`
Ans. 10.2

###

- System: M14
- MEASUREMENT PROTOCOL: Antiproliferative activity against human M14 cells assessed as cell growth inhibition incubated for 72 hrs by MTS assay
- Format: functional, cell-based
- CONDITION LABEL: M14, 72 h
MEASURED ATTRIBUTE: pIC50
The scale used: pIC50 is minus the common logarithm of the concentration in molar units.

Below, each entry is followed by its recorded pIC50 result.
STRUCTURE NOTATION: COc1cc(C(=O)c2ccnc(-c3c[nH]c4ccccc34)n2)cc(OC)c1OC
pIC50: 7.54
--
STRUCTURE NOTATION: COc1cc(C(=O)c2cccc(-c3ccc(C)c(NC(C)=O)c3)n2)cc(OC)c1OC
pIC50: 7.90
--
STRUCTURE NOTATION: COc1cc(C(=O)c2cncc(-c3ccc(C)cc3)n2)cc(OC)c1OC
pIC50: 8.77
--
STRUCTURE NOTATION: COc1cc(C(=O)c2cccc(-c3ccc(C)cc3)n2)cc(OC)c1OC
pIC50: 8.51

Qu. I'd like to know its pIC50. The molecule in question is `COc1cc(C(=O)c2cccc(-c3ccc(C)cc3)n2)cc2c1OCCO2`
Ans. 8.35

###

- MEASUREMENT PROTOCOL: Metabolic stability in mouse liver microsomes assessed as half life in presence of NADPH regenerating system by UPLC-MS analysis
- Type: ADME, Microsome
- CONDITION LABEL: microsomes
MEASURED ATTRIBUTE: t1/2 (h)

STRUCTURE NOTATION: COc1cc(C(=O)c2cncc(-c3ccc(C)c(O)c3)n2)cc(OC)c1OC
t1/2 / h: 1.99

[I] COc1cc(C(=O)c2cccc(-c3ccc(C)cc3)n2)cc2c1OCCO2
[II] COc1cc(C(=O)c2nc(-c3ccc(C(F)F)cc3)ccc2F)cc(OC)c1OC
Qu. // compare measured t1/2 between I and II ; output the lower one Answer = label.
Ans. I

###

- MEASUREMENT PROTOCOL: Cmax in NSG mouse at 10 mg/kg, ip
- Type: ADME, organism-based
- Design: route intraperitoneal, dose 10 mg/kg
- CONDITION LABEL: in vivo
MEASURED ATTRIBUTE: Cmax (ng/mL)
Quick note: give the figure in ng/mL, leave out the unit.

Qu. I'd like to know its Cmax. The molecule in question is `COc1cc(C(=O)c2nc(-c3ccc(C)c(O)c3)ccc2F)cc(OC)c1OC`
Ans. 6210

###

- Tested on: SK-BR-3
- MEASUREMENT PROTOCOL: Antiproliferative activity against human SK-BR-3 cells assessed as cell growth inhibition incubated for 72 hrs by MTS assay
- Type: functional, cell-based
- CONDITION LABEL: SK-BR-3, 72 h
pIC50: −log10 of the molar value.
MEASURED ATTRIBUTE: pIC50

[P] COc1cc(C(=O)c2cncc(-c3ccc(C)c(O)c3)n2)cc(OC)c1OC
[Q] COc1cc(C(=O)c2nc(-c3ccc(C)cc3)ccc2F)cc(OC)c1OC
Qu. Hi team, can someone confirm which has the larger pIC50: P or Q ? Thanks. Answer = label.
Ans. Q
(Q: 8.72, P: 7.57)
